target or system: trastuzumab
procedure text: Fluorescence quenching assay with trastuzumab
Format: binding
test conditions: fluorescence quenching, DNP-tagged ligands
Ends that are not written are not given here.
Exercise: for every item that follows, state its recorded Kd.
Numbers only, in nM.

Example substances with recorded Kd:
The substance identified as Trast-DNP: trastuzumab binding peptide tagged with DNP (LLGPYELWELSH; also: tagged with DNP) registered its Kd at 200

What the record says about LLGPYELWELSH [Trastuzumab binding peptide, reference compound] : Kd is 200

***
Field Kd (entry Trast-Napht-DNP: trastuzumab binding peptide conjugated to napht with ethylene glycol spacer, DNP tagged (LLGPYELWELSH; also: conjugated to napht with ethylene glycol spacer, DNP tagged) ) reads 46

All values here come from patent US20240343835A1.
